test system: dog plasma; assay: Anti-coagulant activity after administration per os to the dog, thrombin time (TT); format: in vivo; details: oral, 5 mg/kg
Structures can show the parent of a compound that is named as a salt.
observable: TT increase (maximal; number of times by which the initial time is increased) (times)
I only need the number, in times, no unit after it.

Would you please look over these solved cases?
molecule	unit_text	observed
Cl.Cl.N=C(N)c1ccc(CNC(=O)[C@]23C[C@H]2CCCN3C(=O)[C@H](N)C(c2ccccc2)c2ccccc2)cc1 [Example 61]	times	14.2
N=C(N)c1ccc(CNC(=O)[C@]23C[C@H]2CCN3C(=O)[C@H](NCC(=O)O)C2CCCCC2)cc1 [Example 17, hydrochloride]	times	16.0

Let us move to another entry and its TT increase (maximal; number of times by which the initial time is increased).
Endpoint output: TT increase (maximal; number of times by which the initial time is increased) of Cl.Cl.N=C(N)c1ccc(CNC(=O)[C@]23C[C@H]2CCN3C(=O)[C@H](N)C(c2ccccc2)c2ccccc2)cc1 [Example 11] . Value?
5.6
